Molecular target: T1, biotinylated human VWF cysteine knot (CK) domain construct (human, UniProt P04275 2724-2813, biotinylated in vitro (BirA) on the biotinylation tag; one N-glycan)
T1 construct: Expressed in HEK293 EBNA cells; disulfide-linked homodimer; also called human VWF CK; human VWF CK domain; not shown: in vitro biotinylation tag, HRV-3C site and 3 VWF residues before the CK domain
Assay: SPR, scFv captured via anti-SV5, CK domain injected, pH 7.4, apparent Kd;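 note: scFvs from crude yeast supernatants printed on an amine-coupled anti-SV5 lawn, Kd computed as koff over kon, likely overestimating affinity because the CK construct is dimeric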
Threshold 2 nM: Kd strictly smaller gives T, otherwise F.

>>> category_label("Lib6_P3_A4_scFv (scFv, VH-linker-VL; not shown: C-terminal 3xFLAG and SV5 tags) scFv: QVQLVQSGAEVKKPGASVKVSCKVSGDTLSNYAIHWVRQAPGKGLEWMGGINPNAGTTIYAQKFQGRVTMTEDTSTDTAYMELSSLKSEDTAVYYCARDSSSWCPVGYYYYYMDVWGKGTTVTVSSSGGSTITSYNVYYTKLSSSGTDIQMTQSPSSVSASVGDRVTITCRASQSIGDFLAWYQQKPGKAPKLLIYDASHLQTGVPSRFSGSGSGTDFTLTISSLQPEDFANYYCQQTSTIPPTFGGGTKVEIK")
"F"

Field: below-cutoff. Rule: recorded Kd strictly less than 2 nM. Subject: Lib6_P3_E10_scFv (scFv, VH-linker-VL; not shown: C-terminal 3xFLAG and SV5 tags) scFv: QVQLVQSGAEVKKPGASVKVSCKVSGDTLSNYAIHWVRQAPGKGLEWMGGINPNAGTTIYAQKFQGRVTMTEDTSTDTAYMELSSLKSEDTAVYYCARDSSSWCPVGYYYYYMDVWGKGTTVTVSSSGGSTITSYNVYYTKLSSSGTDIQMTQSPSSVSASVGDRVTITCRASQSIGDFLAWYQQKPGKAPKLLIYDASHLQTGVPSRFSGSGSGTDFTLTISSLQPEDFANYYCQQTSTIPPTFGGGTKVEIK T

Field: below-cutoff. Rule: recorded Kd strictly less than 2 nM. Subject: 3552_Lib8_scFv (scFv, VH-linker-VL; not shown: C-terminal 3xFLAG and SV5 tags) scFv: EVQLVESGGGLVQPGRSLRLSCAASEFTFGDYDMHWVRQAPGKGLEWVSAISSSGSNRDYADSVEGRFTISRDNAKNSLYLQMNSLRAEDTAVYYCARDAWFGDAFDIWGQGTMVTVSSSGGSTITSYNVYYTKLSSSGTDIQMTQSPSSLSASVGDRVTITCRASESVSSWLAWYQQKPGKAPKLLIYGASTLEGGVPSRFSGSGSGTDFTLTISSLQPEDVATYYCQQSYSFPDFGGGTKVEIK T

Field: below-cutoff. Rule: recorded Kd strictly less than 2 nM. Subject: Lib4_P2_B4_scFv (scFv, VH-linker-VL; not shown: C-terminal 3xFLAG and SV5 tags) scFv: QVQLQESGPGLVKPSQTLSLTCTVSGASLGDQYWSWIRQPPGKGLEWIGYIHPSGDFDYNPSLKSRVTMSVDTSKNQFSLKVNSVTAADTAVYYCARHYSSSWYGTWYFDLWGRGTLVTVSSSGGSTITSYNVYYTKLSSSGTEIVMTQSPATLSLSPGERATLSCRASQNIGTNLAWYQQKPGQAPRLLIYDASVRAAGIPARFSGSGSGTDFTLTISSLEPEDFAVYYCQQSLTTPLTFGGGTKVEIK T

Field: below-cutoff. Rule: recorded Kd strictly less than 2 nM. Subject: 1081_Lib8_scFv (scFv, VH-linker-VL; not shown: C-terminal 3xFLAG and SV5 tags) scFv: EVQLVESGGGLVQPGRSLRLSCAASGFNFHNYDMHWVRQAPGKGLEWVSAISGGAVSTDYADSVEGRFTISRDNAKNSLYLQMNSLRAEDTAVYYCARSSWYGGQIDFWGQGTLVTVSSSGGSTITSYNVYYTKLSSSGTDIQMTQSPSSLSASVGDRVTITCRASESVSSWLAWYQQKPGKAPKLLIYGASTLEGGVPSRFSGSGSGTDFTLTISSLQPEDVATYYCQQAYRTPVTFGGGTKVEIK T

Field: below-cutoff. Rule: recorded Kd strictly less than 2 nM. Subject: 96_Lib4_scFv (scFv, VH-linker-VL; not shown: C-terminal 3xFLAG and SV5 tags) scFv: QVQLQESGPGLVKPSQTLSLTCTVSGESFSTSYWSWIRQPPGKGLEWIGYITHSGYTDYNPSLKSRVTMSVDTSKNQFSLKVNSVTAADTAVYYCARGGRFPFWYFDLWGRGSLVTVSSSGGSTITSYNVYYTKLSSSGTEIVMTQSPATLSLSPGERATLSCRASRSIGSNLAWYQQKPGQAPRLLIYGATTRATGIPARFSGSGSGTDFTLTISSLEPEDFAVYYCQQYKNDATFGGGTKVEIK T

Field: below-cutoff. Rule: recorded Kd strictly less than 2 nM. Subject: Lib4_P2_A3_scFv (scFv, VH-linker-VL; not shown: C-terminal 3xFLAG and SV5 tags) scFv: QVQLQESGPGLVKPSQTLSLTCTVSGVSLSTSDYSWSWIRQPPGKGLEWIGYISPPGRSDYNPSLKSRVTMSVDTSKNQFSLKVNSVTAADTAVYYCARHSSSGWYSTYDFDSWGQGTMVTVSSSGGSTITSYNVYYTKLSSSGTEIVMTQSPATLSLSPGERATLSCRASQNIHSNLAWYQQKPGQAPRLLIYGATTRATGIPARFSGSGSGTDFTLTISSLEPEDFAVYYCQQSYTTPLTFGGGTKVEIK T

Field: below-cutoff. Rule: recorded Kd strictly less than 2 nM. Subject: Lib8_P4_C11_scFv (scFv, VH-linker-VL; not shown: C-terminal 3xFLAG and SV5 tags) scFv: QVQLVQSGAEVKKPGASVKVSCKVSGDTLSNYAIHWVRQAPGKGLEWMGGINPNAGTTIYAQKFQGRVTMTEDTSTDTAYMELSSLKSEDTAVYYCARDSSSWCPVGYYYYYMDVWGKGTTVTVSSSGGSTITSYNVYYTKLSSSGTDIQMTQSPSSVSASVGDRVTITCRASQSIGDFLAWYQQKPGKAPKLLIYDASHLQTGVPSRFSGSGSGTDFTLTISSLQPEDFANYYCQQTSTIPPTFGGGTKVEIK T

Field: below-cutoff. Rule: recorded Kd strictly less than 2 nM. Subject: Lib8_P4_C10_scFv (scFv, VH-linker-VL; not shown: C-terminal 3xFLAG and SV5 tags) scFv: EVQLVESGGGLVQPGRSLRLSCAASGFNFHNYDMHWVRQAPGKGLEWVSAISGSSDTMDYADSVEGRFTISRDNAKNSLYLQMNSLRAEDTAVYYCVRASWYGTFFDYWGQGTLVTVSSSGGSTITSYNVYYTKLSSSGTDIQMTQSPSSLSASVGDRVTITCRASQDISGWLAWYQQKPGKAPKLLIYAASSLQDGVPSRFSGSGSGTDFTLTISSLQPEDVATYYCQQSYRIPSTFGGGTKVEIK F
